assay: Solubility of compound in PBS buffer at pH 7 at 200 uM incubated for 24 hrs in shaker by UPLC-DAD analysis; assay type: physicochemical
Give solubility at 24 h, 200 µM for every item shown.
Numbers only, in µM.

>>> print(df.to_string())
                            chemical_string  reading_unit  data_value
0  C[C@@H](NC(=O)c1ccc(F)cc1)c1ccc2c(n1)CCCN2C(=O)OCC(F)(F)F            µM         132
1  C[C@@H](NC(=O)c1ccc(Cl)cc1)c1ccc2c(c1)OCCN2C(=O)c1cccc(Cl)c1            µM           3

--- query ---
Prompt line: Specify reported solubility at 24 h, 200 µM for the compound shown: `C[C@@H](NC(=O)c1ccc(F)cc1)c1ccc2c(n1)CCCN2C(=O)c1cccc(Cl)c1`
Response line: 82

###

experiment: Solubility of compound in PBS buffer at pH 2 at 200 uM incubated for 24 hrs in shaker by UPLC-DAD analysis; assay type: physicochemical
attribute.measured: solubility at 24 h, 200 µM

// below: answered compounds
                            chemical_string          attribute_measured  data_value
0  C[C@@H](NC(=O)c1ccc(Cl)cc1)c1ccc2c(c1)C(F)(F)CCN2C(=O)c1cccc(Cl)c1  solubility at 24 h, 200 µM      < 4 µM
1  C[C@H](NC(=O)c1ccc(Cl)cc1)c1ccc2c(c1)CCCN2C(=O)c1cccc(Cl)c1  solubility at 24 h, 200 µM      < 1 µM

--- query ---
Prompt line: Specify reported solubility at 24 h, 200 µM for the compound shown: `C[C@@H](NC(=O)c1ccc(Cl)cc1)c1ccc2c(c1)CCCN2C(=O)c1cccc(Cl)c1`
Response line: < 1 µM
